molecular target: Amyloid-beta precursor protein (Homo sapiens); assay: Inhibition of amyloid beta (1 to 42) (unknown origin) aggregation assessed as increase in time of half-life of aggregation at 10 uM using compound dissolved in DMSO measured after 42 hrs by Thioflavin T fluorescence assay relative to control; parameters: scale not given: the % may be the effect or the level left
Activity calls are given as the source filed them. The rule behind the calls is not given here.
MEASURED PROPERTY: Activity

Consider the reported Activity for these compounds:
[[record]]
smiles_string = "COc1ccc(NC(C)=O)cc1C(=O)NNC(=O)[C@H](CCCCN)NC(=O)[C@@H]1CCCN1[C@@H]1CN(C(=O)[C@@H](NC(=O)[C@H](C)N)C(C)C)CC[C@H]1NC(=O)OC(C)(C)C"
result = "13%"

[[record]]
smiles_string = "COc1ccc(NC(C)=O)cc1C(=O)NNC(=O)[C@H](CCCCN)NC(=O)[C@@H]1CCCN1[C@@H]1CN(C(=O)[C@@H](NC(=O)[C@H](C)N)C(C)C)CC[C@H]1NS(=O)(=O)c1ccc(C)cc1"
result = "36%"

[[record]]
smiles_string = "COc1ccc(NC(C)=O)cc1C(=O)NNC(=O)[C@H](CCCCN)NC(=O)[C@@H]1CCCN1[C@@H]1CN(C(=O)[C@@H](NC(=O)[C@H](C)N)C(C)C)CC[C@H]1NS(=O)(=O)c1ccc(N)cc1"
result = "27%"

[[record]]
smiles_string = "CSCC[C@H](NC(=O)[C@H](CC(C)C)NC(=O)CN)C(=O)N[C@H](C(=O)NCC(=O)N1CC[C@@H](NS(=O)(=O)c2ccc(C)cc2)[C@H](N2CCC[C@H]2C(=O)N[C@@H](CCCCN)C(=O)N[C@@H](CC(C)C)C(=O)N[C@H](C(=O)N[C@@H](Cc2ccccc2)C(=O)N[C@@H](Cc2ccccc2)C(N)=O)C(C)C)C1)C(C)C"
result = "inactive"


Ask: Please give the measured Activity for this compound: COc1ccc(NC(C)=O)cc1C(=O)NNC(=O)[C@H](CCCCN)NC(=O)[C@@H]1CCCN1[C@@H]1CN(C(=O)[C@@H](NC(=O)[C@H](C)N)C(C)C)CC[C@H]1N
Result: inactive

Ask: Any idea what Activity was measured for COc1ccc(NC(C)=O)cc1C(=O)NNC(=O)[C@H](CCCCNC(=O)OCc1ccccc1)NC(=O)[C@@H]1CCCN1[C@@H]1CN(C(=O)[C@@H](NC(=O)[C@H](C)NC(=O)OC(C)(C)C)C(C)C)CC[C@H]1NS(=O)(=O)c1ccc(C)cc1 ?
Result: inactive

Ask: # query: Activity of entry COC(=O)[C@@H]1CCCN1[C@@H]1CNCC[C@H]1NS(=O)(=O)c1ccc(C)cc1
Result: inactive

Ask: Requested read-out: Activity. Entry: COc1ccc(NC(C)=O)cc1C(=O)NNC(=O)[C@H](CCCCN)NC(=O)[C@@H]1CCCN1[C@@H]1CN(C(=O)[C@@H](NC(=O)[C@H](C)NC(=O)OC(C)(C)C)C(C)C)CC[C@H]1NS(=O)(=O)c1ccc(C)cc1
Result: 23%

Ask: Fill blank: measured Activity of the compound COc1ccc(NC(C)=O)cc1C(=O)NNC(=O)[C@H](CCCCN)NC(=O)[C@@H]1CCCN1[C@@H]1CN(C(=O)[C@@H](NC(=O)[C@H](C)NC(=O)[C@@H](N)C(C)C)C(C)C)CC[C@H]1NS(=O)(=O)c1ccc(C)cc1 is ____.
Result: inactive

Data provenance: ChEMBL document CHEMBL4152277
